For each record, write down the corresponding inhibition at 500 ppm.
Test system: tobacco mosaic virus (TMV)
Assay: Inhibition of local lesion formation by TMV, half-leaf method on kidney bean primary leaves
Type: in vivo, tobacco mosaic virus on kidney bean plants (variety: Otebo)
Details: Tobacco mosaic virus, TMV, kidney bean primary leaves, 500 ppm, painted just after inoculation, half-leaf method; read-out: Evaluation (rate of inhibition of lesion spot formation)

Task: Enter measured inhibition at 500 ppm, system tobacco mosaic virus (TMV), for the compound shown: CCCCCCCCCCCCCCNC[C@H](O)[C@@H](O)[C@H](O)CO
Result: 90 to 100%

Task: Enter measured inhibition at 500 ppm, system tobacco mosaic virus (TMV), for the compound shown: CCCCCCCCCCNC[C@H](O)[C@H](O)[C@H](O)CO
Result: 90 to 100%

Task: Enter measured inhibition at 500 ppm, system tobacco mosaic virus (TMV), for the compound shown: CCCCCCCCCCCCNC[C@H](O)[C@@H](O)[C@H](O[C@@H]1O[C@H](CO)[C@H](O)[C@H](O)[C@H]1O)[C@H](O)CO
Result: 90 to 100%

Task: Enter measured inhibition at 500 ppm, system tobacco mosaic virus (TMV), for the compound shown: CCCCCCCCCCCCNCC[C@H](O)[C@H](O)CO
Result: 90 to 100%

Task: Enter measured inhibition at 500 ppm, system tobacco mosaic virus (TMV), for the compound shown: CCCCCCNC[C@H](O)[C@@H](O)[C@H](O)[C@H](O)CO
Result: 70 to 90%

Task: Enter measured inhibition at 500 ppm, system tobacco mosaic virus (TMV), for the compound shown: CCCCCCCCCCCCCCCCCCNC[C@H](O)[C@@H](O)[C@H](O[C@@H]1O[C@H](CO)[C@H](O)[C@H](O)[C@H]1O)[C@H](O)CO
Result: 90 to 100%

Task: Enter measured inhibition at 500 ppm, system tobacco mosaic virus (TMV), for the compound shown: CCCCCCCCCCCCNC[C@H](O)[C@H](O)[C@@H](O)[C@H](C)O
Result: 70 to 90%

Task: Enter measured inhibition at 500 ppm, system tobacco mosaic virus (TMV), for the compound shown: CCCCCNC[C@H](O)[C@@H](O)[C@H](O)[C@H](O)CO
Result: 70 to 90%

----------
Test system: tobacco mosaic virus (TMV)
Experiment: Inhibition of local lesion formation by TMV, half-leaf method on kidney bean primary leaves
Type: in vivo, tobacco mosaic virus on kidney bean plants (variety: Otebo)
Settings: Tobacco mosaic virus, TMV, kidney bean primary leaves, 500 ppm, painted just after inoculation, half-leaf method; read-out: Evaluation (rate of inhibition of lesion spot formation)
reported.property: inhibition at 500 ppm

Task: Provide one value: measured inhibition at 500 ppm of CCCCCCCCCCCCCCCCNC[C@H](O)[C@@H](O)[C@H](O)[C@H](O)CO
Result: 70 to 90%

Task: Provide one value: measured inhibition at 500 ppm of CCCCCCCCCCCCCCCNC[C@H](O)[C@@H](O)[C@H](O)[C@H](O)CO
Result: 70 to 90%

Task: Provide one value: measured inhibition at 500 ppm of CCCCCCCCCCCCCCCCCCNC[C@H](O)[C@@H](O)[C@H](O[C@H]1O[C@H](CO)[C@@H](O)[C@H](O)[C@H]1O)[C@H](O)CO
Result: 90 to 100%

Task: Provide one value: measured inhibition at 500 ppm of CCCCCCCCCCCCCCNC[C@H](O)[C@H](O)[C@H](O)CO
Result: 90 to 100%

Task: Provide one value: measured inhibition at 500 ppm of CCCCCCCCCCNC[C@H](O)[C@@H](O)[C@H](O)CO
Result: 70 to 90%

Task: Provide one value: measured inhibition at 500 ppm of CCCCCCCCCCCCNC[C@H](O)[C@@H](O)[C@H](O[C@@H]1O[C@H](CO)[C@@H](O)[C@H](O)[C@H]1O)[C@H](O)CO
Result: 90 to 100%

Task: Provide one value: measured inhibition at 500 ppm of CCCCCCCCCCNC[C@H](O)[C@@H](O)[C@H](O)[C@H](O)CO
Result: 90 to 100%
